This section presents IC50 values reported for UniProt:P00533 in the literature.

# annotated cases, reported IC50 shown
compound: C=CC(=O)NC1CCN(c2ncc3ncnc(Nc4ccc(Oc5ccc6c(c5)nnn6C)c(C)c4)c3n2)CC1
IC50: 100 to 500 nM
--
compound: COc1ccc(F)cc1C(=O)NCc1ccc(-c2cc(C3CCC(CO)OC3)n3ncnc(N)c23)cc1 (single isomer, unassigned)
IC50: ≤ 10 nM
--
compound: C=CC(=O)N1CCN(c2ccc3ncnc(Nc4ccc(Oc5ccc6c(c5)nnn6C)c(C)c4)c3n2)C[C@@H]1COC
IC50: 100 to 500 nM
--
compound: C=CC(=O)NC1CC2(C1)CN(c1ncc3ncnc(Nc4ccc(Oc5ccc6c(c5)nnn6C)c(C)c4)c3n1)C2
IC50: 500 to 1000 nM
--
compound: C=CC(=O)N1C[C@@H]2C[C@H]1CN(c1ncc3ncnc(Nc4ccc(Oc5cc(F)c6c(c5)ncn6C)c(C)c4F)c3n1)C2
IC50: 50 to 100 nM
--
compound: C=CC(=O)N1CCN(c2ncc3ncnc(Nc4ccc(Oc5ccn6ncnc6c5)c(C)c4F)c3c2F)CC1
IC50: 100 to 500 nM

Please provide the recorded IC50 for "C=CC(=O)N1CCN(c2ccc3ncnc(Nc4ccc(Oc5ccc6c(c5)ncn6C(F)F)c(C)c4F)c3n2)C[C@@H]1C1CC1" , tested on UniProt:P00533. ≥ 1000 nM

Which IC50 is reported with UniProt:P00533 for this entry: CN1CCN([C@@H]2CCCN(c3cnc(C(N)=O)c(Nc4ccc(C5CCC(N6Cc7ccc8c(C9CCC(=O)NC9=O)noc8c7C6)CC5)cc4)n3)C2)C1=O (stereo partly shown) ? 785 nM

Please state recorded IC50 (tested on UniProt:P00533) of "C/C=C/C(=O)N1CCN(c2ncc3ncnc(Nc4ccc(Oc5ccc6c(c5)nnn6C)c(C)c4)c3n2)CC1" ≥ 1000 nM

====

Here's a roundup of IC50 values tested on Epidermal growth factor receptor (Homo sapiens), taken from various published works.

molecule: C=CC(=O)N1CCN(c2ccc3ncnc(Nc4ccc(Oc5cnc6c(c5)ncn6C(F)F)c(C)c4)c3n2)C[C@H]1C
subject_of_test: Epidermal growth factor receptor (Homo sapiens)
IC50: < 50 nM

molecule: C=CC(=O)NC1(C)CCN(c2ccc3ncnc(Nc4ccc(Oc5ccc6c(c5)nnn6C)c(C)c4F)c3n2)CC1
subject_of_test: Epidermal growth factor receptor (Homo sapiens)
IC50: 500 to 1000 nM

molecule: C=CC(=O)N1CCN(c2ccc3ncnc(Nc4ccc(Oc5ccc6c(c5)nnn6C)c(C)c4)c3n2)C[C@H]1C
subject_of_test: Epidermal growth factor receptor (Homo sapiens)
IC50: 100 to 500 nM

molecule: C=CC(=O)N1CCN(c2ccc3ncnc(Nc4ccc(Oc5ccc6c(c5)nnn6C)c(C)c4)c3n2)C2CC21 (stereo not shown)
subject_of_test: Epidermal growth factor receptor (Homo sapiens)
IC50: < 50 nM

molecule: C=CC(=O)N1CCN(c2ncc3ncnc(Nc4ccc(Oc5ccc6c(c5)nnn6C)c(C(F)(F)F)c4)c3n2)CC1
subject_of_test: Epidermal growth factor receptor (Homo sapiens)
IC50: 100 to 500 nM

molecule: Cc1cc2cc(n1)-c1cnn(C)c1OCCC[C@@H](C1CC1)CN1/C(=N/C2=O)Nc2cc(NC3(C(F)(F)F)COC3)ccc21
subject_of_test: Epidermal growth factor receptor (Homo sapiens)
IC50: 6 nM

Write down the reported IC50 of "C=CC(=O)N[C@@H]1CCCN(c2ncc3ncnc(Nc4ccc(Oc5ccc6c(c5)nnn6C)c(C)c4F)c3n2)CC1" , test system: Epidermal growth factor receptor (Homo sapiens). ≥ 1000 nM

Value wanted: IC50 (Epidermal growth factor receptor (Homo sapiens)) of entry "Cc1cc(Nc2ncnc3cnc(N4CCN(C(=O)/C=C/CN5CCCC5)CC4)nc23)ccc1Oc1ccc2c(c1)nnn2C" < 50 nM

Hello, I am looking for reported IC50 with Epidermal growth factor receptor (Homo sapiens) for "C=CC(=O)N1CCN(c2ncc3ncnc(Nc4ccc(Oc5ccc6c(c5)nnn6C)c(C)c4)c3n2)C[C@H]1C(C)C" . Could you help? ≥ 1000 nM

Kindly state the measured IC50 obtained for "C=CC(=O)N1CCN(c2ccc3ncnc(Nc4ccc(Oc5ccc6c(c5)nnn6C)c(C)c4)c3n2)C[C@@H]1C" with Epidermal growth factor receptor (Homo sapiens). 100 to 500 nM

Form field - read-out: IC50; system: Epidermal growth factor receptor (Homo sapiens); submitted item: "C=CC(=O)N1CCN(c2ncc3ncnc(Nc4ccc(Oc5cc6ncnn6cc5C)c(C)c4)c3n2)C[C@H]1C" 500 to 1000 nM

Query the reported IC50 for Epidermal growth factor receptor (Homo sapiens); item: "C=CC(=O)N1CCC2(C1)CN(c1ncc3ncnc(Nc4ccc(Oc5ccc6c(c5)nnn6C)c(C)c4)c3n1)C2" ≥ 1000 nM

# value lookup — system Epidermal growth factor receptor (Homo sapiens), readout IC50, item "C=C1CCN(C2CCN(c3ncc4ncnc(Nc5ccc(Oc6ccn7ncnc7c6)c(C)c5)c4n3)CC2)C1=O" ≥ 1000 nM

Recorded IC50 for C=CC(=O)N1CCC2(CCN(c3ccc4ncnc(Nc5ccc(Oc6ccc7c(c6)nnn7C)c(C)c5)c4n3)C2)C1 (stereo not shown) with Epidermal growth factor receptor (Homo sapiens), please? ≥ 1000 nM

Request - read-out IC50 | tested on Epidermal growth factor receptor (Homo sapiens) | molecule "C=CC(=O)N1CCN(c2ccc3ncnc(Nc4ccc(Oc5cc6nnn(C)c6cc5F)c(C)c4)c3n2)C[C@H]1C" 100 to 500 nM

Item "C=CC(=O)N1CCN(c2ncc3ncnc(Nc4ccc(Oc5cnc6c(c5)ncn6C)c(C)c4F)c3n2)C[C@H]1C" with Epidermal growth factor receptor (Homo sapiens) - IC50? 100 to 500 nM

Hello, I am looking for reported IC50 with Epidermal growth factor receptor (Homo sapiens) for "C=CC(=O)N1CCN(c2ccc3ncnc(Nc4ccc(Oc5cc6ncn(C)c6nc5C)c(C)c4)c3n2)C[C@H]1C" . Could you help? 500 to 1000 nM

Provide the documented IC50 with Epidermal growth factor receptor (Homo sapiens) as the system for COc1ccc(F)cc1C(=O)NCc1ccc(-c2nc(C3CCCC(O)C3)n3ccnc(N)c23)cc1 (stereo not shown) 10 to 50 nM

Look up IC50 with Epidermal growth factor receptor (Homo sapiens) for this molecule: "C=CC(=O)N1CCN(c2ncc3ncnc(Nc4ccc(Oc5cc6ncn(C)c6nc5C)c(C)c4)c3n2)CC1" 100 to 500 nM

Reported IC50 for Epidermal growth factor receptor (Homo sapiens), given "C=CC(=O)N1CCN(c2ccc3ncnc(Nc4ccc(Oc5ccc6c(c5)nnn6C)c(C)c4)c3n2)CC1" ? 50 to 100 nM

Hello, I am looking for reported IC50 with Epidermal growth factor receptor (Homo sapiens) for "C=CC(=O)N1CCN(c2ccc3ncnc(Nc4ccc(Oc5cnc6ccnn6c5)c(C)c4)c3n2)CC1" . Could you help? < 50 nM

IC50 of "C=CC(=O)N[C@@H]1CCCN(c2ccc3ncnc(Nc4ccc(Oc5ccc6c(c5)nnn6C)c(C)c4F)c3n2)[C@@H]1C" on Epidermal growth factor receptor (Homo sapiens)? 100 to 500 nM

// map "C=CC(=O)N1CCN(c2ccc3ncnc(Nc4ccc(Oc5ccc6c(c5)nnn6C(F)F)c(C)c4F)c3n2)CC1(C)C" to recorded IC50 (system: Epidermal growth factor receptor (Homo sapiens)) 500 to 1000 nM
